# target-of-assay: T1, RlpA-Δ32 (P. aeruginosa PAO1, UniProt Q9X6V6 32-342)
# T1 construct: source: E. coli BL21-star (DE3), purified (Ni-NTA)
# T1 sequence: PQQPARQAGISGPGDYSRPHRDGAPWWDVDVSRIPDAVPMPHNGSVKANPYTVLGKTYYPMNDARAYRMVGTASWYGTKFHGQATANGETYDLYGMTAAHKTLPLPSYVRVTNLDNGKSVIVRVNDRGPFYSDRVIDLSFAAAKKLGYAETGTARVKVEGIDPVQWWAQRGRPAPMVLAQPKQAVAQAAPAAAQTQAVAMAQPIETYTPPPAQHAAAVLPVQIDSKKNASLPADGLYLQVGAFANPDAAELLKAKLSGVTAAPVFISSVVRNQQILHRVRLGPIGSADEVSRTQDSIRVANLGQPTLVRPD
# method-description: SPR
# experimental-parameters: both partners purified

binder	unit-text	Kd
PA2854 (natural protein, source: E. coli, purified (Ni-NTA or Strep-Tactin)) LELQLPPPGEDVVGQVQVIKAKYEDTFADLGEQYNLGYSEMVAANPGVDPWLPGVGTEVIIPTRFVLPPGPREGVVINLAEYRLYYYPKGQNVVHTYPLGIGREGWGSPIANTRITAKTKDPAWYPPASIRAEHAADGDPLPTVVPPGPDNPLGPYKLTLGVPGYLIHGSNKKFGIGTRTSHGCFRMYNADVTHLFSMISVGTSVRIINEPYKFGVSNGKVYLEAHTPLNDHGDPSVVDKHTAVINTLLKRDDLAKRIQLNWDVVREVVASEDGVPVEIAQESAPAMTATVDSDPTQLTP	µM	0.065
